Reported IC50 values for the following molecules.
- Tested on: hERG current (Homo sapiens (Human), UniProt Q12809)
- Sequence (Q12809 whole entry): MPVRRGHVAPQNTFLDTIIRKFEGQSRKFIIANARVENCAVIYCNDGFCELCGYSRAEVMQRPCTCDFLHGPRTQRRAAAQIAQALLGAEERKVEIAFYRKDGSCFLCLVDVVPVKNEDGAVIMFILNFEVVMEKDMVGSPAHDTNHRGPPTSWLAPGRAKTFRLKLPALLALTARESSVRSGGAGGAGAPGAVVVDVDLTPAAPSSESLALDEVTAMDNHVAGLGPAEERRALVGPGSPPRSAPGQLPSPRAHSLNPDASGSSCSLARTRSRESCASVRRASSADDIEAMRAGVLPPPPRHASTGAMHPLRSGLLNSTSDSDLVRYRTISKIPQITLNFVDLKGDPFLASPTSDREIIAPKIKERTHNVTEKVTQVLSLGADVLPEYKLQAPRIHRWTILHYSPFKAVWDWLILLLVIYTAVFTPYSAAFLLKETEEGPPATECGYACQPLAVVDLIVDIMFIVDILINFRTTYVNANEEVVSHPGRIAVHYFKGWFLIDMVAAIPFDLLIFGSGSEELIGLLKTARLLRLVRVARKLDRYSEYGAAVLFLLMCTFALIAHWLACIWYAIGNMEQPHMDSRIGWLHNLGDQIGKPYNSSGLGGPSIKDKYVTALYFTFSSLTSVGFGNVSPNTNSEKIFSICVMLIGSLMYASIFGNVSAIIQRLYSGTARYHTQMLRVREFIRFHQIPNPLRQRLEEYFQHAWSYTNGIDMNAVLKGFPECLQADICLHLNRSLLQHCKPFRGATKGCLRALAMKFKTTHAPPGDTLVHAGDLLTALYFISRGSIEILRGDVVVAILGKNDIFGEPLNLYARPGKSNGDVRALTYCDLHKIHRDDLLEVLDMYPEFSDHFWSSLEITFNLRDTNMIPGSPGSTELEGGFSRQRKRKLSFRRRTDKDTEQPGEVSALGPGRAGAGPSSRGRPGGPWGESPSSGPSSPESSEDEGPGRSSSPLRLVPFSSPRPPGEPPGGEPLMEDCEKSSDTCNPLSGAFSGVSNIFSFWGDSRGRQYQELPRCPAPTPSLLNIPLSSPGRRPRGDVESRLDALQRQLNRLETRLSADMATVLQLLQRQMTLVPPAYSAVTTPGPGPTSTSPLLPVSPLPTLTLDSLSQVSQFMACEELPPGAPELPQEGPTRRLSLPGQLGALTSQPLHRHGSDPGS
- Test description: cell-based
Where a name gives a salt, the structure may show the parent alone.
Quantity: IC50 (nM)

> print(dat)
                                   molecule  quantity  reported
1  CC[C@]1(c2cccc(NS(=O)(=O)C3CC3)c2)[C@@H]2CN(CC3(OC)Cc4ccccc4C3)C[C@@H]21 [Example 3-(b), hydrochloride]      IC50       580
2  CC[C@]1(c2cc(NS(=O)(=O)C3CC3)ccc2F)[C@@H]2CN(CCCN3CCC(F)(F)CC3)C[C@@H]21 [Example 15-(b), hydrochloride]      IC50      1300
3  CC[C@]1(c2cccc(NS(=O)(=O)C3CC3)c2)[C@@H]2CN(CCCC3(OC)CCC(F)(F)CC3)C[C@@H]21 [Example 6-(b), hydrochloride]      IC50       660
4  CC[C@]1(c2cc(NS(=O)(=O)C3CC3)ccc2F)[C@@H]2CN(CCCC3CCC(F)(F)CC3)C[C@@H]21 [Example 5-(b), hydrochloride]      IC50        89
5  CC[C@]1(c2cccc(NS(=O)(=O)C3CC3)c2)[C@@H]2CN(CCCN3CCC(F)(F)C3)C[C@@H]21 [Example 8-(b), hydrochloride]      IC50       340
6  CC[C@]1(c2cc(F)cc(NS(=O)(=O)C3CC3)c2)[C@@H]2CN(CC3(O)Cc4ccccc4C3)C[C@@H]21 [Example 10-(b), hydrochloride]      IC50        62

====

- Tested on: human μ-opioid receptor (Homo sapiens (Human), UniProt P35372)
- Test description: Antagonist activity test using [35S]-GTPγS bond as index using human μ-opioid receptor-expressing cell membrane
- Type: biochemical
pIC50: −log10 of the molar value. Counter-ions that a name gives are not always drawn.
Quantity: pIC50

> print(dat)
                                   compound  reported
1  C=C[C@]1(c2cccc(NS(=O)(=O)C3CC3)c2)[C@@H]2CN(CC3(O)Cc4ccccc4C3)C[C@@H]21 [Example 19-(b), hydrochloride]      8.35
2  C[C@]1(c2cccc(NS(=O)(=O)C3CC3)c2)[C@@H]2CN(CC3(O)Cc4ccccc4C3)C[C@@H]21 [Example 17-(b), hydrochloride]      8.27
3  CC[C@]1(c2cccc(NS(=O)(=O)C3CC3)c2)[C@@H]2CN(CC3(OC)Cc4ccccc4C3)C[C@@H]21 [Example 3-(b), hydrochloride]      8.44
4  CC[C@]1(c2cc(NS(=O)(=O)C3CC3)ccc2F)[C@@H]2CN(CCCC3CCC(F)(F)CC3)C[C@@H]21 [Example 5-(b), hydrochloride]      8.80
5  CC[C@]1(c2cc(F)cc(NS(=O)(=O)C3CC3)c2)[C@@H]2CN(CC3(OC)Cc4ccccc4C3)C[C@@H]21 [Example 12-(b), hydrochloride]      7.92
6  CCOC1(CN2C[C@@H]3[C@H](C2)[C@@]3(CC)c2cccc(NS(=O)(=O)C3CC3)c2)Cc2ccccc2C1 [Example 13-(b), hydrochloride]      8.39
7  CC[C@]1(c2cccc(NS(=O)(=O)C3CC3)c2)[C@@H]2CN(CC3(O)Cc4ccccc4C3)C[C@@H]21 [Example 1-(b), hydrochloride]      8.82
